Cited source for all entries: patent US12398111B2

System: prostaglandins in guinea pig secondary aqueous humor
Assay: Effect on prostaglandin composition in guinea pig aqueous humor (instillation of 0.003% ophthalmic solution, LC/MS/MS)
Format: in vivo, Hartley male guinea pig
Assay Conditions: 24 hr after instillation of 0.003% ophthalmic solution
Note to self: PGE2 (%) under 40% means fulfilled, ties and anything higher get not fulfilled.

Query: Take the compound `C[C@@H](Oc1ccc(-c2nc(O)nc(-c3cc(CNC(=O)C(C)(C)C(F)(F)F)ccc3Cl)n2)cc1)C1CC1` and say whether its PGE2 (%) is less than 40%.
Reply: not fulfilled

Query: Would you kindly repeat that for `CCCOc1ccc(-c2nc(O)nc(-c3cc(CNC(=O)C(C)(C)C(F)(F)F)ccc3Cl)n2)cc1` ?
Reply: fulfilled

Query: Okay, and `Cc1cccc(COc2cccc(C(F)(F)F)c2-c2nc(O)nc(-c3ccc(C#Cc4ccccc4)cc3)n2)n1.Cl` ?
Reply: fulfilled

Query: Check `CCCOc1ccc(-c2nc(O)nc(-c3cc(CNC(=O)[C@@](C)(OC)C(F)(F)F)ccc3Cl)n2)cc1` too.
Reply: not fulfilled

Query: Next up: `Cc1ccc(-c2nc(O)nc(-c3cc(CNC(=O)C(C)(C)C(F)(F)F)ccc3Cl)n2)cc1F`
Reply: not fulfilled

Query: Request: `CC1(COc2ccc(-c3nc(O)nc(-c4cc(CNC(=O)C(C)(C)C(F)(F)F)ccc4Cl)n3)cc2)CC1`
Reply: fulfilled

Query: Then this compound: `CC(C)COc1ccc(-c2nc(O)nc(-c3cc(CNC(=O)C(C)(C)C(F)(F)F)ccc3Cl)n2)cc1`
Reply: fulfilled

---

Tgt: human mPGES-1 (Homo sapiens)
Sequence (O14684 whole entry): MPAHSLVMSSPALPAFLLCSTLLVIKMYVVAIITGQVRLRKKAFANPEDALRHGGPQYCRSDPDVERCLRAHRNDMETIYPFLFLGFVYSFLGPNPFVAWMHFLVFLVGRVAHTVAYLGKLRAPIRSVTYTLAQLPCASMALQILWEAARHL
Measured Property: log10 of IC50 (log10 of the value in µM)
Annotation: log10 of IC50, µM basis.

Query: log10 of IC50; subject: `CC(C)(C(=O)NCc1ccc(Cl)c(-c2nc(O)nc(-c3ccc(OCC4CCC4)cc3)n2)c1)C(F)(F)F`
Reply: -2.70

Query: Field entry: `CC(C)(C(=O)NCc1ccc(Cl)c(-c2nc(O)nc(-c3ccc(F)c(C4CC4)c3)n2)c1)C(F)(F)F`
Reply: -3.30

Query: Let us now turn to `COc1c(CNC(C)=O)ccc(Cl)c1-c1nc(O)nc(-c2ccc(C(F)(F)F)cc2)n1`
Reply: -0.47

Query: Same lookup for `CCO[C@](C)(C(=O)N(C)Cc1ccc(Cl)c(-c2nc(O)nc(-c3ccccc3)n2)c1)C(F)(F)F` , please.
Reply: -0.29

Query: Repeat with `Cc1cc(Cl)c(-c2nc(O)nc(-c3ccc(OCC4CC4)cc3)n2)cc1C(N)=O`
Reply: 0.04

Query: Would you mind doing `COc1c(CO)ccc(Cl)c1-c1nc(O)nc(-c2ccc(C(F)(F)F)cc2)n1` as well?
Reply: -0.83

Query: Also `CC(C)(C)C(=O)NCc1ccc(Cl)c(-c2nc(O)nc(-c3cccc(C(C)(C)C)c3)n2)c1` , if possible.
Reply: -3.30

Query: Queued: `Cc1cccc(C)c1-c1nc(O)nc(-c2cccc(C(F)(F)F)c2)n1`
Reply: 0.57

Query: Also `CC(C)(C(=O)NCc1ccc(Cl)c(-c2nc(O)nc(-c3ccc(OCC4(C(F)(F)F)CC4)cc3)n2)c1)C(F)(F)F` , if possible.
Reply: -2.43

Query: Could you do the same for `O=C(NCc1ccc(Cl)c(-c2nc(O)nc(-c3ccc(C(F)(F)F)cc3)n2)c1)C1CCCCC1` , please?
Reply: -2.96

Query: Check `O=C(NCc1ccc(Cl)c(-c2nc(O)nc(-c3ccccc3)n2)c1)C1(CO)CCCC1` too.
Reply: -1.52

Query: Same thing, different molecule: `O=C(NCc1ccc(Cl)c(-c2nc(O)nc(-c3cccc(C(F)(F)F)c3)n2)c1)C1(C(F)(F)F)CCCC1`
Reply: -2.92

Query: Field entry: `Oc1nc(-c2ccc(C#Cc3ccccc3)cc2)nc(-c2c(OCc3cc(C(F)(F)F)ccn3)cccc2C(F)(F)F)n1`
Reply: -1.82

Query: Again, but for `CCC(CC)Oc1ccc(-c2nc(O)nc(-c3c(C)cccc3C)n2)cc1`
Reply: -0.40

Query: Query `Oc1nc(-c2ccc(C#Cc3ccc(C(F)(F)F)cc3)cc2)nc(-c2c(OCc3ccccn3)cccc2C(F)(F)F)n1` next
Reply: -1.74

Query: Same for `CC(C)c1cccc(-c2nc(O)nc(-c3cc(CNC(=O)C(C)(C)C)ccc3Cl)n2)c1`
Reply: -3.05

Query: Same read-out for Cc1cccc(COc2cccc(C(F)(F)F)c2-c2nc(O)nc(-c3ccc(C#Cc4ccccc4)cc3)n2)n1.Cl [Example 2-98, hydrochloride] ?
Reply: -2.43

Query: Then what about the molecule `CN(Cc1ccc(Cl)c(-c2nc(O)nc(-c3ccccc3)n2)c1)C(=O)C(C)(C)C` ?
Reply: -1.10

Query: Quick one: `Oc1nc(-c2ccc(C(F)(F)F)cc2)nc(-c2c(O)cccc2Cl)n1`
Reply: -0.39

Query: Please give the result for `CCC(=O)NCc1ccc(Cl)c(-c2nc(O)nc(-c3ccc(C(F)(F)F)cc3)n2)c1` too.
Reply: -3.00

Query: How about `CC(C)(C)OC(=O)N1CCC2(CC1)CCN(Cc1ccc(Cl)c(-c3nc(O)nc(-c4ccccc4)n3)c1)C2=O` ?
Reply: -1.25

Query: And the next one, `CC(C)S(=O)(=O)NCc1ccc(Cl)c(-c2nc(O)nc(-c3ccc(C(F)(F)F)cc3)n2)c1` ?
Reply: -3.10

Query: `CC(C)(C)COc1ccc(-c2nc(O)nc(-c3cc(CNCC(F)(F)F)ccc3Cl)n2)cc1` ?
Reply: -1.49

Query: // next record `Cc1cccc(C)c1-c1nc(O)nc(-c2ccc(OCC3CC3)cc2)n1`
Reply: -0.37

Query: Another: CO[C@](C)(C(=O)NC(C)c1ccc(Cl)c(-c2nc(O)nc(-c3ccc(F)c(C)c3)n2)c1)C(F)(F)F (single isomer, unassigned)
Reply: -2.80
